- targetEntity: human LPA1 receptor (Homo sapiens (Human), UniProt Q92633)
- Sequence (Q92633 whole entry): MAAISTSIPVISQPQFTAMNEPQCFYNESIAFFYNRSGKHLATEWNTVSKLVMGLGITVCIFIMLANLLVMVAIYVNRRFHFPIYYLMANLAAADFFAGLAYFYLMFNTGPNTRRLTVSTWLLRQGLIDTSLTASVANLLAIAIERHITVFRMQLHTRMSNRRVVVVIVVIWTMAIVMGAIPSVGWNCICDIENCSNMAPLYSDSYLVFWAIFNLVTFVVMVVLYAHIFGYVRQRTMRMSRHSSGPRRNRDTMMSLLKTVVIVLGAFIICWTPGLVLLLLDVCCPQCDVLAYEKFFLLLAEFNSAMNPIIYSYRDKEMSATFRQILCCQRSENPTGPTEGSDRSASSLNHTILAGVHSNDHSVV
- experimentDescription: Beta-arrestin recruitment assay to determine IC50 values for human LPAR1
- reportedConditions: antagonist mode, Tango EDG2-bla U2OS cells, LPA 18:1 500 nM final
IC50 strictly under 40 nM means Y; at 40 nM or over means N.

// known answers, use as guide
>>> qualitativelabel("Cc1ccc(NC(=O)C2(c3ccccc3C(C)C)CN(CCCC(C)(C)C#N)C2)c(OC(F)F)n1 [Ex 11-60]")
"N"
>>> qualitativelabel("Cc1ccc(NC(=O)C2(c3ccccc3C(C)C)CCN(CCO)CC2)c(OC(F)F)n1 [Ex 11-3]")
"Y"
>>> qualitativelabel("CC(C)c1ccccc1C1(C(=O)Nc2cccnc2OC(F)F)CN(S(=O)(=O)CCC(=O)OCc2ccccc2)C1 [Ex 13-9]")
"Y"
>>> qualitativelabel("Cc1ccc(NC(=O)C2(c3ccccc3C(C)C)CN(C(=O)C3(CC(=O)O)COC3)C2)c(OC(F)F)n1 [Ex 12-99]")
"Y"

Inquiry: Is IC50 strictly under 40 nM for the entry COC(=O)c1cnc(CN2CC(C(=O)Nc3ccc(C)nc3OC(F)F)(c3ccccc3C(C)C)C2)cn1 [Ex 11-54] ?
Reply text: N

Inquiry: Is IC50 strictly under 40 nM for the entry Cc1ccc(NC(=O)C2(c3ccccc3C(C)C)CN(C(=O)[C@H](C)NC(=O)OC(C)(C)C)C2)c(OC(F)F)n1 [Ex 12-32] ?
Reply text: N

Inquiry: Is IC50 strictly under 40 nM for the entry CCCOc1nc(C)ccc1NC(=O)C1(c2ccccc2C(C)C)CN(S(N)(=O)=O)C1 [Ex 59] ?
Reply text: N

Inquiry: Is IC50 strictly under 40 nM for the entry Cc1ccc(NC(=O)C2(c3ccccc3C(C)C)CN(C(=O)N[C@@H](C)C(=O)O)C2)c(OC(F)F)n1 [Ex 17-9] ?
Reply text: N

Inquiry: Is IC50 strictly under 40 nM for the entry Cc1ccc(NC(=O)C2(c3ccccc3C(C)C)CN(C(=O)C[C@](C)(O)C(=O)O)C2)c(OC(F)F)n1 [Ex 12-117] ?
Reply text: Y

Inquiry: Is IC50 strictly under 40 nM for the entry Cc1ccc(NC(=O)C2(c3ccccc3C(C)C)CN(C(=O)CC3(N)COC3)C2)c(OC(F)F)n1 [Ex 12-38] ?
Reply text: Y

Inquiry: Is IC50 strictly under 40 nM for the entry COC(=O)C1(COC(=O)N2CC(C(=O)Nc3ccc(C)nc3OC(F)F)(c3ccccc3C(C)C)C2)CC1 [Ex 14-11] ?
Reply text: N

Inquiry: Is IC50 strictly under 40 nM for the entry Cc1cc(Cl)nc(N2CC(C(=O)Nc3ccc(C)nc3OC(F)F)(c3ccccc3C(C)C)C2)n1 [Ex 18-26] ?
Reply text: N

Inquiry: Is IC50 strictly under 40 nM for the entry Cc1ccc(NC(=O)C2(c3ccccc3C(C)C)CN(C(=O)c3nnn[nH]3)C2)c(OC(F)F)n1 [Ex 12-18] ?
Reply text: Y

Inquiry: Is IC50 strictly under 40 nM for the entry Cc1ccc(NC(=O)C2(c3ccccc3C(C)C)CN(C(=O)CC3(O)COC3)C2)c(OC(F)F)n1 [Ex 12-13] ?
Reply text: Y

Inquiry: Is IC50 strictly under 40 nM for the entry CC(C)c1cccnc1C1(C(=O)Nc2ncc(Cl)cc2OC(F)F)CN(S(N)(=O)=O)C1 [Example 81-7] ?
Reply text: Y
